molecular target: recombinant EhipPBP1 (Eogystia hippophaecolus, UniProt A0A1B3P5J8); assay: Fluorescence competitive binding assay with 1-NPN as probe; details: calculated from IC50 by Ki = [IC50]/(1 + [1-NPN]/K1-NPN); Table 1
Sequence (A0A1B3P5J8 entry or part of it): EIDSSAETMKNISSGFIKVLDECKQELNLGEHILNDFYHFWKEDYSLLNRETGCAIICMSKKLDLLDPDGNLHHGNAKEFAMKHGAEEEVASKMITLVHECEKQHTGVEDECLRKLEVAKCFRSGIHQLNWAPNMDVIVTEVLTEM
// returns F unless Kd is strictly below 2 µM, in which case T

>>> cat("CCCCCC/C=C\\CCCCCCOC(C)=O [Z7-14:Ac, (Z)-7-tetradecenyl acetate]")
"T"
>>> cat("CCCCCCCCCCC=CCCO [Z3-14:OH]")
"F"
>>> cat("CCCCCCC=CCCCCCCO [Z7-14:OH]")
"F"
>>> cat("CCCC/C=C/CCCCCCCCOC(C)=O [E9-14:Ac]")
"F"

Challenge: Kd strictly < 2 µM for this molecule? CCCCCCCCCC/C=C/CCOC(C)=O [E3-14:Ac, (E)-3-tetradecenyl acetate]
Response given: T

====

Entries and their measured inhibition follow.
Target: recombinant EhipPBP1 (Eogystia hippophaecolus)
Assay: Fluorescence competitive binding assay with 1-NPN as probe
Details: 1-NPN and EhipPBP1 both at 2 μM; competitor 2–20 μM; pH 7.4; read-out: Highest combined rate (%)
Procedure: N-phenyl-1-naphthylamine (1-NPN) was selected for use as a selectively fluorescent probe to measure the affinity of ligand binding to recombinant EhipPBP1 ([Yin et al., 2012]; [Zhong et al., 2012]). […] A fluorescence binding assay was performed on a multiscan Spectrum Molecular Device SpectraMax i3 (Thermo Scientific, Wilmington, DE, United States) with an excitation wavelength of 337 nm and recording of emission spectra between 380 and 520 nm. […] Spectra were recorded using high-speed scanning. […]
Please reply with the bare figure in % and do not write the unit itself.

>>> test_value("CCCCCCCCCCC=CCCO [Z3-14:OH]")
56.5
>>> test_value("CCCCCCCCCC/C=C/CCOC(C)=O [E3-14:Ac, (E)-3-tetradecenyl acetate]")
89.4
>>> test_value("CCCCCC/C=C\\CCCCCCOC(C)=O [Z7-14:Ac, (Z)-7-tetradecenyl acetate]")
86.4

Challenge: // output inhibition; input CCCCC=CCCCCCCCCOC(C)=O [Z9-14:Ac] ; system recombinant EhipPBP1 (Eogystia hippophaecolus)
Response given: 37.9

Challenge: // output inhibition; input CCCCCCC=CCCCCCCO [Z7-14:OH] ; system recombinant EhipPBP1 (Eogystia hippophaecolus)
Response given: 62.3

Challenge: // output inhibition; input CCCC/C=C/CCCCCCCCOC(C)=O [E9-14:Ac] ; system recombinant EhipPBP1 (Eogystia hippophaecolus)
Response given: 53.1

====

Entries and their measured pKd follow.
molecular target: recombinant EhipPBP1 (Eogystia hippophaecolus, UniProt A0A1B3P5J8); experiment: Fluorescence competitive binding assay with 1-NPN as probe; conditions: calculated Kd values in competitive binding assays with 1-NPN
Reminder that pKd means the negative base-10 logarithm of the concentration expressed in mol/L.

>>> test_value("CCCCCC/C=C\\CCCCCCOC(C)=O [Z7-14:Ac, (Z)-7-tetradecenyl acetate]")
5.93
>>> test_value("CCCCCCCCCC/C=C/CCOC(C)=O [E3-14:Ac, (E)-3-tetradecenyl acetate]")
5.80
>>> test_value("CCCC/C=C/CCCCCCCCOC(C)=O [E9-14:Ac]")
5.20

Challenge: Query pKd for CCCCCCCCCCC=CCCO [Z3-14:OH]
Response given: 5.63

====

biological target: recombinant EhipPBP1 (Eogystia hippophaecolus, UniProt A0A1B3P5J8); test: Binding of the fluorescent probe 1-NPN to EhipPBP1 (Scatchard analysis); settings: Scatchard method; 2 μM EhipPBP1, 1-NPN 2–20 μM, pH 7.4; read-out: dissociation constant (K1-NPN)
Measure: pKd
Reminder that pKd means the negative base-10 logarithm of the concentration expressed in mol/L.

Challenge: Query pKd for c1ccc(Nc2cccc3ccccc23)cc1
Response given: 5.43

====

target: recombinant EhipPBP1 (Eogystia hippophaecolus); assay: Fluorescence competitive binding assay with 1-NPN as probe; settings: concentration of competitor causing 50% reduction of 1-NPN fluorescence; 1-NPN and EhipPBP1 at 2 μM; pH 7.4
Entries and their measured IC50 follow.

Record excerpt, results attached:
>>> test_value("CCCCCCCCCC/C=C/CCOC(C)=O [E3-14:Ac, (E)-3-tetradecenyl acetate]")
"2 µM"
>>> test_value("CCCCCCCCCCC=CCCO")
"3 µM"
>>> test_value("CCCCCCC=CCCCCCCO")
"4 µM"
>>> test_value("CCCCCC/C=C\\CCCCCCOC(C)=O [Z7-14:Ac, (Z)-7-tetradecenyl acetate]")
"1.5 µM"

Read the next record carefully.
Challenge: Query IC50 for CCCC/C=C/CCCCCCCCOC(C)=O
Response given: 8 µM
